target_desc: NADPH oxidase 5 (Homo sapiens)
protocol_details: NOX5-dependent H2O2 signal modulators, primary screen, NOX inhibitor project, cell-based, HEK293-NOX5, Amplex Red fluorescence (AID 1161)
reported_conditions: HEK293-NOX5, ionomycin, 45 min, higher = more signal
Kindly state z-score for each of the entries shown.
Kindly provide the number alone.

## Task Look up and state reported z-score for CO[C@H]1COC(=O)CC=C[C@@H](C)[C@H](OC)COC(=O)CCC[C@@H]1C
## Result 0.863

## Task Give the reported value of z-score for this record: CCCNC(=O)OC[C@H]1O[C@H](CCON=Cc2ccc(C(=O)N3[C@H](c4ccc(C)cc4)[C@@H](C)CC[C@H]3C(=O)OC)cc2)C=C[C@@H]1Oc1ccc(OC)cc1
## Result 0.393

## Task Dear colleague, please send me the reported z-score for CCOC(=O)[C@H](CC(C)C)NC(=O)CCC1CC(OC(=O)NCc2cccc3ccccc23)CC2(CCCC(COC(=O)NCCOc3ccccc3)O2)O1 (some centres not stated) when you can.
## Result 0.534

## Task Give the reported z-score for this compound. COC(=O)CC=C[C@@H](C)[C@@H](C=NOC[C@H]1O[C@H](c2ccccc2)C=C[C@@H]1Oc1ccc(OC)cc1)NS(=O)(=O)c1ccc(C)cc1
## Result -0.523

## Task Return z-score for the following compound: CCOC(=O)[C@H](Cc1ccccc1)NC(=O)CCC1CC(OC(=O)NCCc2ccc(F)cc2)CC2(CCCC(COC(=O)NCC3CCCCC3)O2)O1 (some centres not stated)
## Result 0.0102

## Task Check the records and state z-score for CC(C)=CCCC(C)=CCON=C1C[C@@H](O)[C@@H](O)[C@@H]2[C@@H]3C(=O)N(c4ccc(F)cc4F)C(=O)[C@@H]3CC[C@@H]12
## Result 0.0854

## Task Fill in z-score for record Cc1cc2c(nc1C)CCCN2CC(O)CN1CCCc2nc(C)c(C)cc21
## Result -0.575
